Experiment: ovarian cancer cell viability with rucaparib, profiling panel, oncology-focused library, rucaparib conditional (AID 1508598)
Details: patient-derived ovarian cancer cells, CellTiter-Glo viability, 144 h; at 1.25 µM; OCI-C5x cells; without rucaparib
Calls of active or inactive are those of the source.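 How the source made its calls: active means normalized viability below 100% at a tested concentration; inactive means the rest.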
Respond only with the outcome that fits, drawn from 1.0 (active), 0.0 (inactive)

## Input Answer briefly: the call reported for O=C1CN2Cc3c(ccc(Cl)c3Cl)N=C2N1 in this assay.
## Output 0.0

## Input How did this test come out for NC(=O)Nc1sc(-c2ccc(F)cc2)cc1C(N)=O ?
## Output 0.0

## Input Which outcome was assigned to Nc1nc(F)nc2c1ncn2[C@@H]1O[C@H](COP(=O)(O)O)[C@@H](O)[C@@H]1O in this test?
## Output 1.0

## Input Could you kindly confirm the outcome this assay logged for O=C(c1ccc(OCCN2CCCCC2)cc1)c1c(-c2ccc(O)cc2)sc2cc(O)ccc12 ?
## Output 0.0

## Input Answer briefly: the call reported for O=c1cc(N2CCOCC2)oc2c(-c3ccccc3)cccc12 in this assay.
## Output 0.0

## Input Recorded test outcome, item Nc1nc(Cl)nc2c1ncn2[C@H]1C[C@H](O)[C@@H](CO)O1
## Output 1.0

## Input Hi team, can someone confirm the assay call for C[C@@H](N)C1CCC(C(=O)Nc2ccncc2)CC1 (stereo not given in full) ?
## Output 0.0

## Input Record lookup: outcome of this test for O=C(O)Cc1cccc(OCCCN(Cc2cccc(C(F)(F)F)c2Cl)CC(c2ccccc2)c2ccccc2)c1 ?
## Output 0.0

Further cases:
## Input Please indicate how the test categorized Cc1ccc(S(=O)(=O)/C=C/C#N)cc1 .
## Output 0.0

## Input Please let me know the test result on file for C[C@H](NC(=O)Cc1cc(F)cc(F)c1)C(=O)N[C@H](C(=O)OC(C)(C)C)c1ccccc1 .
## Output 0.0
